# Test system: MDA-MB-231 (breast cancer)
# experimental.protocol: Antiproliferative activity (CCK-8 cell viability), MDA-MB-231
# Type: cell-based
# test.context: Homo sapiens, Compound concentration: 10 μM, 72 h, read-out: Antiproliferative activity in cancerous cells, MDA-MB-231 (inhibition of cell growth)
# Method: The antiproliferative activity of a compound was determined in the following cell lines: MDA-MB-231 (breast cancer), HepG2 (liver cancer), SW480 (colon cancer), B16F10 (malignant melanoma), A431 (epidermoid carcinoma), A549 (lung adenocarcinoma), and HeLa (cervical cancer). […] Briefly cells were seeded in a 96-well plate at a density of 2,000-5,000 cells/well. […] After incubation at 37° C. for 4 h, the absorbance value of each well was determined using a multi-well plate reader at 450 nm. […]
Here the recorded inhibition at 10 µM is given for each entry.

## Task State the recorded inhibition at 10 µM for this entry: "CC1=C(CC(=O)O)c2c(Cl)cc(Cl)cc2/C1=C/c1ccc(Oc2ccc(F)cc2)cc1"
## Result ≥ 50%

## Task inhibition at 10 µM for "CC1=C(CC(=O)O)c2cc(F)ccc2/C1=C\c1ccc(CCCc2ccc(O)cc2)cc1" ?
## Result ≥ 50%

## Task Value lookup for inhibition at 10 µM; key = "CC1=C(CC(=O)O)c2cc(Cl)ccc2/C1=C\c1ccc(CCCc2ccc(F)cc2)cc1"
## Result ≥ 50%

## Task # inhibition at 10 µM lookup, item "CC1=C(CC(=O)O)c2c(F)cccc2/C1=C\c1ccc(COc2ccccc2)cc1"
## Result ≥ 50%

## Task Fill in the blank: the reported inhibition at 10 µM of "COc1cc(Oc2ccc(Cl)cc2)ccc1/C=C1/C(C)=C(CC(=O)O)c2cc(F)ccc21" is ____.
## Result < 30%

## Task Tell me the measured inhibition at 10 µM of "CC1=C(CC(=O)O)c2cc(F)ccc2/C1=C\c1ccc(CCc2ccc(F)cc2)cc1" , please.
## Result < 30%

## Task # query: inhibition at 10 µM of entry "CC1=C(CC(=O)O)c2cc(C)ccc2/C1=C\c1ccc(Oc2ccc(F)cc2)cc1"
## Result 30 to 50%

## Task State the recorded inhibition at 10 µM for this entry: "O=C(O)CC1=C(Cc2ccc(C(F)(F)F)cc2)/C(=C/c2cccc(COc3ccccc3)c2)c2ccc(F)cc21"
## Result ≥ 50%

meta.source: patent US20260184663A1
